src = the supplement of paper PMC10065799

Would you kindly list phosphorylation enrichment for each of these sequences?
# System: AncSZ
# PROTOCOL_TEXT: phosphorylation enrichment, bacterial display (enrichment ratio); higher = better substrate or ligand; peptides without Tyr show the background

# example entries with known answers
> print(dat)
                       item.sequence             recorded.metric  meas.value
 1       KVKPIYLHTQG [AR_Y916_F917L]  phosphorylation enrichment       0.687
 2          QDTSRYTVSNL [BIRC3_Y245]  phosphorylation enrichment       0.971
 3     HEVHIYENSGA [ARPC1B_Y35_K37N]  phosphorylation enrichment        1.44
 4           GGDVIYKGFED [NFU1_Y194]  phosphorylation enrichment       0.871
 5        TTPYNYSYIFK [RAB14_Y8_A4T]  phosphorylation enrichment       0.895
 6   KVGRVYLFLQP [ITGA2B_Y360_E355K]  phosphorylation enrichment        1.02
 7    IDFARYWHGND [MMP11_Y162_D166N]  phosphorylation enrichment       0.918
 8  TQNAVYSAANF [DDX5_Y535_G533A_YF]  phosphorylation enrichment       0.634
 9      AKAEICEMRPL [COX10_Y97_Y97C]  phosphorylation enrichment       0.709
10      KFVVVYFREID [IL17RB_Y447_YF]  phosphorylation enrichment         1.2

Provide the reported phosphorylation enrichment of each entry below, same order.
1. TGVRDYIHVVD [GALE_Y241]
2. FADIAYNYRHG [PAH_Y166]
3. HPAGNYSLSSV [ARFGAP3_Y473_Q468H]
4. YGPPQYNIQYS [ERBB2IP_Y977]
5. NGLVAYKDGKL [PMM2_Y76]

1: 0.846; 2: 0.711; 3: 0.49; 4: 0.989; 5: 0.602

---

Would you kindly list phosphorylation enrichment for each of these sequences?
# TEST_SYSTEM: Jak2 (UniProt O60674)
# Sequence (O60674 whole entry, looked up): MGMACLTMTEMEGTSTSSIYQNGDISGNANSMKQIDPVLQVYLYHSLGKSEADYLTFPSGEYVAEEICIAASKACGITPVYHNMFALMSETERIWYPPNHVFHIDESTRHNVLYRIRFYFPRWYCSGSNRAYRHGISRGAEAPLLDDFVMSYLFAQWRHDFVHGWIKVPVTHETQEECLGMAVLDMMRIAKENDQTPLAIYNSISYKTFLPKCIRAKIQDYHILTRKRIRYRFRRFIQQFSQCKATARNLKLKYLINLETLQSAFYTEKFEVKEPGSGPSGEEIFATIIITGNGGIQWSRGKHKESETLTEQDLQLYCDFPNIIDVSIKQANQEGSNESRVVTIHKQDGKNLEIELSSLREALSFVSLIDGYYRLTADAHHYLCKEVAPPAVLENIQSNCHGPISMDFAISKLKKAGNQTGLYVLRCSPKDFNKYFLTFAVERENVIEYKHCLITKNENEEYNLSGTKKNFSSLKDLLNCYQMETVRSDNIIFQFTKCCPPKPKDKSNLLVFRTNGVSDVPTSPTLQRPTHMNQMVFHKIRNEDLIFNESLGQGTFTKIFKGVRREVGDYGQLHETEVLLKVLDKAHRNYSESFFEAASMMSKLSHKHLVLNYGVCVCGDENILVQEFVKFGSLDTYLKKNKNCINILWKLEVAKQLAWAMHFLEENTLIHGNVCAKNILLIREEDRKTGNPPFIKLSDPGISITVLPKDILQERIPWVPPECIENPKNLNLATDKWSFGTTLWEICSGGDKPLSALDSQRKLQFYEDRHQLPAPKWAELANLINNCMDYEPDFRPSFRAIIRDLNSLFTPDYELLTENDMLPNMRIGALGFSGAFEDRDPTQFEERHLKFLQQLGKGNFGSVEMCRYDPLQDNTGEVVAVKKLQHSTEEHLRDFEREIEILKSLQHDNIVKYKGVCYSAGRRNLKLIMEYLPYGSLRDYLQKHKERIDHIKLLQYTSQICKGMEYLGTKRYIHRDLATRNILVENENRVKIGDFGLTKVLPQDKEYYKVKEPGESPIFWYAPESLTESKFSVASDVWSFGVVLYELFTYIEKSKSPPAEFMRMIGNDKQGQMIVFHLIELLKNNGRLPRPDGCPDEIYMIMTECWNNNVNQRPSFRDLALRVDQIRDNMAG
# PROTOCOL_TEXT: phosphorylation enrichment, bacterial display (enrichment ratio); higher = better substrate or ligand; peptides without Tyr show the background
Give bare numbers.

> print(dat)
                      item.sequence            test.system  meas.value
1  SLTGAYASGIP [POM121C_Y378_T379A]  Jak2 (UniProt O60674)       0.904
2     SEVVPYEPPEV [TP53_Y220_V216E]  Jak2 (UniProt O60674)        1.16
3     FGGTVCHSPVS [PRC1_Y511_Y511C]  Jak2 (UniProt O60674)       0.506
4      LAIELYVVVCK [RHO_Y136_R135L]  Jak2 (UniProt O60674)        2.07

Provide the reported phosphorylation enrichment of each entry below, same order.
1. CTTIHYNYVCN [TP53_Y234_M237V]
2. VVEDGYEFFAK [PPP1CB_Y254]

1: 0.828; 2: 1.01

Provide the reported phosphorylation enrichment of each entry below, same order.
1. EYGRRYGFSCQ [CCDC93_Y209_R213C]
2. MKVPLYETPAG [PGM5_Y358_V357L]

1.2
0.767

Provide the reported phosphorylation enrichment of each entry below, same order.
1. TVSSDYLHPQF [CCPG1_Y569_F566S_YF]
2. CTTIHYNFMGN [TP53_Y234_C238G_YF]
3. FQHLRYIKQLG [SAMHD1_Y146_R143H]
4. FTDPFYDFEIE [ZC3H18_Y372_A368T_YF]
5. LENSTYQYIHV [CRB1_Y760_R764H]
6. NKFVAYIESQG [KDM4B_Y34_YF]
7. RAMRRYLEWGE [ERBB3_Y680_R683W]

[0.779, 0.73, 0.706, 1.66, 1.18, 0.836, 0.677]

Provide the reported phosphorylation enrichment of each entry below, same order.
1. VISNAYVDLAP [HSD17B4_Y602]
2. GGYNNYGYGND [HNRNPH3_Y159]
3. KIVQDYLEKFY [MMP8_Y36_T32I]
4. NTVLGYFIGRI [GARS1_Y408]
5. CGLPRYRWLTH [TSPAN12_Y143_Y138C]
6. KGRAGYTTVAV [RET_Y752]
7. KGYRGYSYDDI [TMEM230_Y110]

0.707
0.808
0.719
0.735
0.669
0.437
0.607

---

# TEST_SYSTEM: SHP2-C SH2
# PROTOCOL_TEXT: SH2 binding enrichment of the phosphorylated peptide, bacterial display (enrichment ratio); higher = better substrate or ligand; peptides without Tyr show the background
Label yes (1) when SH2 binding enrichment is at or above 0.7; otherwise label no (0).

Before answering, review these 2 worked examples.
> print(dat)
                   item.sequence  test.system  assigned.label
1  QTWKTYVRHQQ [SFI1_Y164_Q167H]   SHP2-C SH2         yes (1)
2   ALARKYHGGGG [HBB_Y146_H144R]   SHP2-C SH2          no (0)

Let's switch to this sequence now.
Check the entry GKTQQYECKWF [BCR_Y751_D752E_YF] : does SH2 binding enrichment equal or exceed 0.7?
no (0)

---

# System: AncSZ
# PROTOCOL_TEXT: phosphorylation enrichment, bacterial display (enrichment ratio); higher = better substrate or ligand; peptides without Tyr show the background
Label criterion met when phosphorylation enrichment is at or above 0.8; otherwise label criterion not met.

Before answering, review these 6 worked examples.
> print(dat)
                item.sequence     assigned.label
1   SLVGCYNLTFM [HS6ST3_Y323]      criterion met
2   LRRREYQRQDY [PRKRIP1_Y90]      criterion met
3     KSVLVYRNGDP [DCDC2_Y22]  criterion not met
4    RSRRSYSCQVM [IGLL1_Y192]  criterion not met
5  LGPSDYFGEIA [PRKAR1A_Y323]      criterion met
6     GLSDPYVKIHL [SYT2_Y309]  criterion not met

Let's switch to this sequence now.
Check the entry PSARTYCFKQE [KLHDC9_Y175_YF] : does phosphorylation enrichment equal or exceed 0.8?
criterion not met

---

# TEST_SYSTEM: Grb2 SH2 (UniProt P62993)
# Sequence (P62993 whole entry, looked up): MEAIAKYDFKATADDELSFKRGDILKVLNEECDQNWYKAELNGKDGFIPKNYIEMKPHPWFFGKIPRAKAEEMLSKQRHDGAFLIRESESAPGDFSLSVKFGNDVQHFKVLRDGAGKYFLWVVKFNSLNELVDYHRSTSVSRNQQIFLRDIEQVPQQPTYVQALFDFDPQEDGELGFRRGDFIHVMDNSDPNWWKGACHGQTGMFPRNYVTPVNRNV
# PROTOCOL_TEXT: SH2 binding enrichment of the phosphorylated peptide, bacterial display (enrichment ratio); higher = better substrate or ligand; peptides without Tyr show the background
Label class 1 when SH2 binding enrichment is at or above 0.8; otherwise label class 0.

Before answering, review these 2 worked examples.
> print(dat)
                   item.sequence                test.system  assigned.label
1  CVVVPYEPPEV [TP53_Y220_S215C]  Grb2 SH2 (UniProt P62993)         class 0
2        CTLLPYYSARV [DGKE_Y269]  Grb2 SH2 (UniProt P62993)         class 0

Let's switch to this sequence now.
Check the entry FTDPFYDFEIE [ZC3H18_Y372_A368T_YF] : does SH2 binding enrichment equal or exceed 0.8?
class 1

---

Would you kindly list phosphorylation enrichment for each of these sequences?
# TEST_SYSTEM: Jak2 (UniProt O60674)
# PROTOCOL_TEXT: phosphorylation enrichment, bacterial display (enrichment ratio); higher = better substrate or ligand; peptides without Tyr show the background
Answers are plain numbers.

# example entries with known answers
> print(dat)
                     item.sequence            test.system             recorded.metric  meas.value
 1   GRVLGYGAFRK [FLT4_Y853_G857R]  Jak2 (UniProt O60674)  phosphorylation enrichment       0.539
 2         TGVRDYIHVVD [GALE_Y241]  Jak2 (UniProt O60674)  phosphorylation enrichment        0.71
 3         SYKNKYGMVAQ [APOB_Y276]  Jak2 (UniProt O60674)  phosphorylation enrichment       0.483
 4    YIPFRYPKEFQ [IDS_Y234_H229Y]  Jak2 (UniProt O60674)  phosphorylation enrichment       0.477
 5         TMKSRYMELYD [BBS2_Y644]  Jak2 (UniProt O60674)  phosphorylation enrichment       0.808
 6          ALIKAYDKAVA [SMN1_Y43]  Jak2 (UniProt O60674)  phosphorylation enrichment       0.532
 7  PEFMVYKPQME [CCRL2_Y170_V168M]  Jak2 (UniProt O60674)  phosphorylation enrichment       0.898
 8       SEELHYFVQNH [UQCRC2_Y207]  Jak2 (UniProt O60674)  phosphorylation enrichment        1.08
 9  ALLTKYSRSSM [DSCC1_Y374_H376R]  Jak2 (UniProt O60674)  phosphorylation enrichment       0.816
10   HSVLNYGVCVC [JAK2_Y613_L609S]  Jak2 (UniProt O60674)  phosphorylation enrichment        1.17

Provide the reported phosphorylation enrichment of each entry below, same order.
1. CEQELYSQLVY [WAS_Y102_W97C]
2. KSVLVYRNGDP [DCDC2_Y22]
3. FTHSDYQFSQR [PKP2_Y166_YF]
4. SVVVPNEPPEV [TP53_Y220_Y220N]

[1.22, 0.55, 0.589, 1.05]

Provide the reported phosphorylation enrichment of each entry below, same order.
1. NGLVAYKDGKL [PMM2_Y76]
2. KKKKQYKGKFL [CASK_Y708_D710G_YF]
3. FRASFYRKGGC [ALK_Y1283_YF]

1. 0.528
2. 0.535
3. 0.683

Provide the reported phosphorylation enrichment of each entry below, same order.
1. NVQIVYKPVDL [MAPT_Y627_S622N]
2. ELTTCYRKKCC [CCBE1_Y70]
3. QVMDGYPMPIG [MMP14_Y353]

1. 0.796
2. 0.652
3. 0.987

Provide the reported phosphorylation enrichment of each entry below, same order.
1. KPRKPYTIKKP [BRD2_Y715]
2. RHSGSYFVTSV [APC_Y2838_L2839F]
3. KHCEDYVCSFN [DSC1_Y846_YF]
4. IRQDDYESLKE [MTR_Y921_H920D]

[2.95, 0.89, 1.13, 1.13]

The reported phosphorylation enrichment of the sequence HFVDEYDQTIE [KRAS_Y32_P34Q] was 2.14
